Every entry's value here was drawn from patent US7138428B2.

System: HepG2 (liver cancer)
EXPERIMENT: cells
CONDITION_LABEL: HepG2
Would you mind telling me the reported LC50 (50% cell destroying lethal concentration) of each entry?
One number for each entry, in µg/mL.

Here is how some compounds turned out for LC50 (50% cell destroying lethal concentration).
# COMPOUND, TARGET_SYSTEM, UNIT_DESCRIPTOR, MEASURED_VALUE
data = [
    ("CC(C)=CCc1c2c(c(O)c3c1OC14C(=CC5CC1C(C)(C)OC4(C/C=C(\\C)CO)C5=O)C3=O)C=CC(C)(C)O2 (stereo not drawn)", "HepG2 (liver cancer)", "µg/mL", 3.0),
    ("CC(C)=CCC[C@]1(C)C=Cc2c(O)c3c(c(CC=C(C)C)c2O1)O[C@]12C(=C[C@@H]4C[C@H]1C(C)(C)O[C@@]2(C/C=C(\\C)C(=O)O)C4=O)C3=O", "HepG2 (liver cancer)", "µg/mL", 1.9),
    ("CC(C)=CCC[C@]1(C)C=Cc2c(O)c3c(c(CC=C(C)C)c2O1)O[C@]12C(=C[C@@H]4C[C@H]1C(C)(C)O[C@@]2(C/C=C(/C)C(=O)O)C4=O)C3=O", "HepG2 (liver cancer)", "µg/mL", 2.7),
]

Give me LC50 (50% cell destroying lethal concentration) for each of these compounds, listed below.
1. CC(C)=CCc1c2c(c(O)c3c1O[C@]14C(=C[C@@H]5C[C@H]1C(C)(C)O[C@@]4(C/C=C(/C)C(=O)O)C5=O)C3=O)C=CC(C)(C)O2
2. CC(C)=CCc1c2c(c(O)c3c1OC14C(=CC5CC1C(C)(C)OC4(C/C=C(\C)C(=O)O)C5=O)C3=O)C=CC(C)(C)O2 (stereo not drawn)
3. CC(C)=CCc1c2c(c(O)c3c1O[C@@]14C(=C[C@H]5CC1C(C)(C)O[C@]4(CC=C(C)C)C5=O)C3=O)C=CC(C)(C)O2

A)
3.9
33
31

###

System: HT-29 (colon cancer)
EXPERIMENT: cells
CONDITION_LABEL: HT-29
hey, just use satisfied if measured LC50 (50% cell destroying lethal concentration) is less than 9 mg/L, otherwise not satisfied

# COMPOUND, CATEGORY_LABEL
data = [
    ("CC(C)=CCc1c2c(c(O)c3c1OC14C(=CC5CC1C(C)(C)OC4(C/C=C(\\C)C(=O)O)C5=O)C3=O)C=CC(C)(C)O2 (stereo not drawn)", "not satisfied"),
]

Q) Strictly below 9 mg/L in LC50 (50% cell destroying lethal concentration)? `CC(C)=CCC[C@]1(C)C=Cc2c(O)c3c(c(CC=C(C)C)c2O1)O[C@]12C(=C[C@@H]4C[C@H]1C(C)(C)O[C@@]2(C/C=C(/C)C(=O)O)C4=O)C3=O`
A) satisfied

Q) Strictly below 9 mg/L in LC50 (50% cell destroying lethal concentration)? `CC(C)=CCc1c2c(c(O)c3c1O[C@@]14C(=C[C@H]5CC1C(C)(C)O[C@]4(CC=C(C)C)C5=O)C3=O)C=CC(C)(C)O2`
A) not satisfied

Q) Strictly below 9 mg/L in LC50 (50% cell destroying lethal concentration)? CC(C)=CCc1c2c(c(O)c3c1OC14C(=CC5CC1C(C)(C)OC4(C/C=C(\C)CO)C5=O)C3=O)C=CC(C)(C)O2 (stereo not drawn)
A) satisfied

Q) Strictly below 9 mg/L in LC50 (50% cell destroying lethal concentration)? `CC(C)=CCc1c2c(c(O)c3c1O[C@]14C(=C[C@@H]5C[C@H]1C(C)(C)O[C@@]4(C/C=C(/C)C(=O)O)C5=O)C3=O)C=CC(C)(C)O2`
A) satisfied

###

System: HL-60 (leukemia)
EXPERIMENT: cells
CONDITION_LABEL: HL-60
PARAMETER: LC50 (50% cell destroying lethal concentration) (µg/mL)
Give bare numbers, in µg/mL.

# CHEM_SMILES, UNIT_DESCRIPTOR, MEASURED_VALUE
records = [
    ("CC(C)=CCC[C@]1(C)C=Cc2c(O)c3c(c(CC=C(C)C)c2O1)O[C@]12C(=C[C@@H]4C[C@H]1C(C)(C)O[C@@]2(C/C=C(\\C)C(=O)O)C4=O)C3=O", "µg/mL", 4.6),
]

# context switch: different molecule, same LC50 (50% cell destroying lethal concentration)
Entry under test: `CC(C)=CCC[C@]1(C)C=Cc2c(O)c3c(c(CC=C(C)C)c2O1)O[C@]12C(=C[C@@H]4C[C@H]1C(C)(C)O[C@@]2(C/C=C(/C)C(=O)O)C4=O)C3=O` . Its LC50 (50% cell destroying lethal concentration) was 5.2

###

Data export: LC50 (50% cell destroying lethal concentration) values recorded with normal human umbilical venal epithelial cell (HUVEC).
Give bare numbers, in µg/mL.

# COMPOUND, MEASURED_VALUE
measured = [
    ("CC(C)=CCc1c2c(c(O)c3c1OC14C(=CC5CC1C(C)(C)OC4(C/C=C(\\C)CO)C5=O)C3=O)C=CC(C)(C)O2 (stereo not shown)", 9.3),
    ("CC(C)=CCc1c2c(c(O)c3c1O[C@]14C(=C[C@@H]5C[C@H]1C(C)(C)O[C@@]4(C/C=C(/C)C(=O)O)C5=O)C3=O)C=CC(C)(C)O2", 4.8),
    ("CC(C)=CCc1c2c(c(O)c3c1O[C@@]14C(=C[C@H]5CC1C(C)(C)O[C@]4(CC=C(C)C)C5=O)C3=O)C=CC(C)(C)O2", 40),
]

Give me LC50 (50% cell destroying lethal concentration) for each of these compounds, listed below.
1. CC(C)=CCC[C@]1(C)C=Cc2c(O)c3c(c(CC=C(C)C)c2O1)O[C@]12C(=C[C@@H]4C[C@H]1C(C)(C)O[C@@]2(C/C=C(\C)C(=O)O)C4=O)C3=O
2. CC(C)=CCc1c2c(c(O)c3c1OC14C(=CC5CC1C(C)(C)OC4(C/C=C(\C)C(=O)O)C5=O)C3=O)C=CC(C)(C)O2 (stereo not shown)
3. CC(C)=CCC[C@]1(C)C=Cc2c(O)c3c(c(CC=C(C)C)c2O1)O[C@]12C(=C[C@@H]4C[C@H]1C(C)(C)O[C@@]2(C/C=C(/C)C(=O)O)C4=O)C3=O

A)
1: 5.2; 2: 22; 3: 3.6

Measured LC50 (50% cell destroying lethal concentration) for this entry `CC(C)=CCc1c(O)cc(O)c2c(=O)c3cc4c(c(O)c3oc12)OC(C)(C)C=C4` on normal human umbilical venal epithelial cell (HUVEC): 21

###

Would you mind telling me the reported LC50 (50% cell destroying lethal concentration) of each entry?
System: U937 (lymphoma cancer)
EXPERIMENT: cells
CONDITION_LABEL: U937
Answers are plain numbers, in µg/mL.

Here is how some compounds turned out for LC50 (50% cell destroying lethal concentration).
# COMPOUND, MEASURED_VALUE
rows = [
    ("CC(C)=CCc1c2c(c(O)c3c1O[C@]14C(=C[C@@H]5C[C@H]1C(C)(C)O[C@@]4(C/C=C(/C)C(=O)O)C5=O)C3=O)C=CC(C)(C)O2", 4.8),
    ("CC(C)=CCC[C@]1(C)C=Cc2c(O)c3c(c(CC=C(C)C)c2O1)O[C@]12C(=C[C@@H]4C[C@H]1C(C)(C)O[C@@]2(C/C=C(\\C)C(=O)O)C4=O)C3=O", 3.1),
    ("CC(C)=CCc1c2c(c(O)c3c1OC14C(=CC5CC1C(C)(C)OC4(C/C=C(\\C)C(=O)O)C5=O)C3=O)C=CC(C)(C)O2 (stereo not drawn)", 6.1),
    ("CC(C)=CCC[C@]1(C)C=Cc2c(O)c3c(c(CC=C(C)C)c2O1)O[C@]12C(=C[C@@H]4C[C@H]1C(C)(C)O[C@@]2(C/C=C(/C)C(=O)O)C4=O)C3=O", 3.1),
]

Measured LC50 (50% cell destroying lethal concentration) for this entry CC(C)=CCc1c2c(c(O)c3c1OC14C(=CC5CC1C(C)(C)OC4(C/C=C(\C)CO)C5=O)C3=O)C=CC(C)(C)O2 (stereo not drawn) on U937 (lymphoma cancer): 3.8

###

Tested on: HL-60 (leukemia)
EXPERIMENT: cells
CONDITION_LABEL: HL-60
Would you mind telling me the reported LC50 (50% cell destroying lethal concentration) of each entry?
Give bare numbers, in µg/mL.

# COMPOUND, TARGET_SYSTEM, MEASURED_VALUE
records = [
    ("CC(C)=CCc1c2c(c(O)c3c1OC14C(=CC5CC1C(C)(C)OC4(C/C=C(\\C)CO)C5=O)C3=O)C=CC(C)(C)O2 (stereo not drawn)", "HL-60 (leukemia)", 6.2),
    ("CC(C)=CCc1c2c(c(O)c3c1O[C@]14C(=C[C@@H]5C[C@H]1C(C)(C)O[C@@]4(C/C=C(/C)C(=O)O)C5=O)C3=O)C=CC(C)(C)O2", "HL-60 (leukemia)", 5.6),
]

Entry under test: CC(C)=CCc1c2c(c(O)c3c1OC14C(=CC5CC1C(C)(C)OC4(C/C=C(\C)C(=O)O)C5=O)C3=O)C=CC(C)(C)O2 (stereo not drawn) . Its LC50 (50% cell destroying lethal concentration) was 43
